- Tested on: johnsongrass (Sorghum halepense)
- protocol.description: Test C greenhouse herbicide test, pre- and postemergence
- Assay type: in vivo
- condition.set: Preemergence, 250 g ai/ha; scale 0 to 100, 0 no effect, 100 complete control
- Description: […]
measured.quantity: Johnsongrass plant response rating
A bare number is all that is needed in reply.

Past entries and their recorded results:
CCCC(=O)Oc1c(C)nn(C)c(=O)c1-c1c(C)sc2ccc(C)cc12 ... 60
Cn1nc(Br)c(O)c(-c2cccc3ccccc23)c1=O ... 10
CC(=O)Oc1c(C)nn(C)c(=O)c1-c1c(C)sc2ccc(C(F)(F)F)cc12 ... 25

## Task Fill in: Johnsongrass plant response rating of CCc1sc2ccc(C)cc2c1-c1c(O)c(C)nn(C)c1=O is ___
## Result 0
